Data provenance: patent US20230072683A1

- ASSAY SYSTEM: UniProtKB P78527
- TEST METHOD NOTES: Evaluation of inhibitory activity against DNA-PK (HTRF kinase assay, GST-cMyc-p53 substrate)
- Format: biochemical
- TEST CONDITIONS: compound concentration 0.1 μM; read-out: EXP_VALUE(% Inhibition) DNA-PK(h) 0.1 μM
ASSAY ENDPOINT: inhibition at 0.1 µM (%)

Example results:
C[C@H](Nc1ncnc2[nH]ccc(=O)c12)c1c(Cl)c2cccc(-c3cnc4c(c3)OCCO4)c2c(=O)n1-c1ccccc1 = 102
C[C@H](Nc1ncnc2[nH]ccc(=O)c12)c1c(Cl)c2cccc(N(C)C)c2c(=O)n1-c1ccccc1 = 69
C[C@H](Nc1ncnc2[nH]ccc(=O)c12)c1c(Cl)c2cccc(-c3ccc(N4CCN(C(=O)OC(C)(C)C)CC4)cc3)c2c(=O)n1-c1ccccc1 = 75

P: C[C@H](Nc1ncnc2[nH]ccc(=O)c12)c1c(Cl)c2cccc(N3C[C@]4(C)C[C@H]3CC(C)(C)C4)c2c(=O)n1-c1ccccc1
Q: C[C@H](Nc1ncnc2[nH]ccc(=O)c12)c1c(Cl)c2cccc(-c3ccc4c(c3)OCCN4)c2c(=O)n1-c1ccccc1
R: C[C@H](Nc1ncnc2[nH]ccc(=O)c12)c1c(Cl)c2cccc(N3CCCC3)c2c(=O)n1-c1ccccc1
S: C[C@H](Nc1ncnc2[nH]ccc(=O)c12)c1c(Cl)c2cccc(C#Cc3ccc(C(F)(F)F)cc3)c2c(=O)n1-c1ccccc1 [Example 315, 2,2,2-trifluoroacetate]
INPUT: Please put the entries in order of rising inhibition at 0.1 µM. Quick reminder: the answer is the labels in the order asked.
OUTPUT: P, R, S, Q
(P: 8%, R: 42%, S: 62%, Q: 98%)

----------
- ASSAY SYSTEM: DNA-PK(h) (Homo sapiens)
- TEST METHOD NOTES: Evaluation of inhibitory activity against DNA-PK (HTRF kinase assay, GST-cMyc-p53 substrate)
- Type: biochemical
- TEST CONDITIONS: compound concentration 0.01 μM; read-out: EXP_VALUE(% Inhibition) DNA-PK(h) 0.01 μM
ASSAY ENDPOINT: inhibition at 0.01 µM (%)

C[C@H](Nc1ncnc2[nH]ccc(=O)c12)c1c(Cl)c2cccc(NC3CC3)c2c(=O)n1-c1ccccc1 = 8
CC(C)NC(=O)c1cccc2c(Cl)c([C@H](C)Nc3ncnc4[nH]ccc(=O)c34)n(-c3ccccc3)c(=O)c12 = 14
C[C@H](Nc1ncnc2[nH]ccc(=O)c12)c1c(Cl)c2cccc(/C(N)=N/O)c2c(=O)n1-c1ccccc1 = 15

A: C[C@H](Nc1ncnc2[nH]ccc(=O)c12)c1c(Cl)c2cccc(NC3CCOC3)c2c(=O)n1-c1ccccc1 (stereo partly shown)
B: C[C@H](Nc1ncnc2[nH]ccc(=O)c12)c1c(Cl)c2cccc(B(O)O)c2c(=O)n1-c1ccccc1
C: C[C@H](Nc1ncnc2[nH]ccc(=O)c12)c1c(Cl)c2cccc(N3CCOCC3)c2c(=O)n1-c1ccccc1
D: COc1cc(OC)cc(-c2cccc3c(Cl)c([C@H](C)Nc4ncnc5[nH]ccc(=O)c45)n(-c4ccccc4)c(=O)c23)c1
INPUT: Put the molecules in ascending order of inhibition at 0.01 µM. Quick reminder: the answer is the labels in the order asked.
OUTPUT: C, B, A, D
(C: 6%, B: 19%, A: 31%, D: 67%)
